# assay.target: cruzain (Trypanosoma cruzi, UniProt P25779)
# Sequence (P25779 123-337 limits assumed): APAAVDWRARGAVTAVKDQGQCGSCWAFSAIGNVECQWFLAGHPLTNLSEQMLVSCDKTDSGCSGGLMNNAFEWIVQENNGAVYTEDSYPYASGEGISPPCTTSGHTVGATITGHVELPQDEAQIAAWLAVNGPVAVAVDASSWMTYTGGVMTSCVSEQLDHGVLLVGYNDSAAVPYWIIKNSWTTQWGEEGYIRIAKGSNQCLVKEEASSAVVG
# assay.comment: Aggregation counter-assays: cruzain inhibition at varying Triton X-100 and after pre-incubation with BSA
# Format: biochemical
# Set-up: Cruzain is the truncated, recombinant-expressed cruzipain 1; Brian Shoichet (University of California San Francisco)
# measurement.parameters: 0.1% Triton X-100; compound µM: MMV687246 12.5, MMV687812 3.125, MMV688179 1.563, MMV688362 3.125, MMV688466 6.25, MMV690028 25
metric: % Cruzain Inhibition (Mean ± SEM) 0.1% Triton X-100 (%)
Expressed in %, but write only the number.

>>> df
                           smiles_structure                              assay_target  units_of_measure  measured
0  CN1CCN(CCCOc2ncc(Nc3ncc(-c4ccc(C(F)(F)F)c(F)c4)nc3C(N)=O)cn2)CC1  cruzain (Trypanosoma cruzi, UniProt P25779)                 %        54

% Cruzain Inhibition (Mean ± SEM) 0.1% Triton X-100 for CN1CCN(S(=O)(=O)c2ccc(-c3ccc4c(Nc5ccc6nn[nH]c6c5)ccnc4c3)cc2)CC1 ?
32

% Cruzain Inhibition (Mean ± SEM) 0.1% Triton X-100 for N=C(N)Nc1ccc(-c2ccc(-c3ccc(NC(=N)N)cc3Cl)o2)c(Cl)c1 ?
82

% Cruzain Inhibition (Mean ± SEM) 0.1% Triton X-100 for COc1cc(C2=NCCN2)cc2cc(-c3ccc(C4=NCCN4)cc3)oc12 ?
25

% Cruzain Inhibition (Mean ± SEM) 0.1% Triton X-100 for Cn1ccnc1CNCCS(=O)(=O)c1cccc(Nc2ccc(-c3cccc(F)c3)cn2)c1 ?
82
